test system: MS2 coat protein; experiment: apparent KD of MS2 coat protein; higher = weaker reporter binding; conditions: Eterna round: R107; input ligand: arginine 13.2 mM
Let's look at some sequences and their measured apparent KD of MS2 coat protein.
Endpoint name: apparent KD of MS2 coat protein (nM)

seq="AGUGUUAUAACUGAUACCAGACUCUCAUGUUUACAUGAGGAUCACCCAUGUUAUUUCUUUGUCCCUUGGCAGCAGAAUUAACACA [JR_SSTheophyB_Sub010]" system="MS2 coat protein" recorded_value=152
seq="GCACAAGAUGGAAGGAGCGCUGGUAAAAGUCACAUGAGGAUCACCCAUGUGCUCCUUGCCGAGCAGGUAGGUCGCCAUCUUGUGC [SSAB NP+V+V2 #4]" system="MS2 coat protein" recorded_value=19.5
seq="UAUAUAUAUCACUAACUGUUCUUGAGGUCUCGAGGACCGGUACGGCCGCCACUCGGGCCGCCUCACAUGAGGAUCACCCAUGUCC [XTryp A #3]" system="MS2 coat protein" recorded_value=38.9
seq="GAAUUUUAUUGAAGGAGCGUCGAAAAUGGGUAAACAUGAGGAUCACCCAUGUAAAGGGAACGACAGGUAGGUCGCAAUAGGAUUC [AstromonsSSArgB#28]" system="MS2 coat protein" recorded_value=140
seq="ACUAGUUGUGCAGAUACCAGGCACGAGGAUCACCCGUGUUUGGGAUGUUCGCAUCUUCCUGUCCCUUGGCAGCUGUACAUCUAGA [Omei Theo B Exc v9]" system="MS2 coat protein" recorded_value=29.6
seq="GGCCUAUGGCGCGAUACCAGCUUGAGUGUACUGGCCAGGUACAUGAGGAUCACCCAUGUAAGCCCUUGGCAGCGCGUCAUAGGCC [#1 Exclusion - Theophylline B Attempt #23 (HarryS)]" system="MS2 coat protein" recorded_value=8.91
seq="GGGCAAGAGGGAAGGAGCGUCAGCUGAGUCACAUGAGGAUCACCCAUGUCGCACAUAGUGUGACAGGUAGGUCGCCCUCUGCCCU [Zaistiqu]" system="MS2 coat protein" recorded_value=74.3
seq="UGUCAGCGAAAGUUGACAUGUCUUACCGGUCGAGGACCGGUACGGCCGCCACUCGAUCACUCGCACAUGAGGAUCACCCAUGUUG [SS Tryp A #21]" system="MS2 coat protein" recorded_value=21.1
seq="UCGGUGCUCUACAUGAGGAUCACCCAUGUCCGAGGACCGGUACGGCCGCCACUCGCAAUCAAACAGACGUGGGCCAACUUUGCGU [Tiribeesqu]" system="MS2 coat protein" recorded_value=11
seq="UGUAACAUGAGGAUCACCCAUGUGCACGAUACCAGCUUAUUGAUAGGCCCUUGGCAGCGUAUGCGGAAGCUGUAUAAUAUAUAUC [#27 SameState-TheophyllineA]" system="MS2 coat protein" recorded_value=10.3
seq="AACAUGAGGAUCACCCAUGUAAAAUGGGAUACCAGAGACGAAAGUCUCCCUUGGCAGCCCACUGCCUCCUUUACGAAAGUAGAGG [Theophylline A 15]" system="MS2 coat protein" recorded_value=29.8
seq="UUAUAAGCACCUGAUACCAGUAUGAACCCGUACAUGAGGAUCACCCAUGUUAAUUUCUAUUACCCUUGGCAGCAGCCUUUUUCCU [theeternabot_sameState_MS2_Theo_B_2]" system="MS2 coat protein" recorded_value=18.7
seq="UGACAUUGCUCAGAUACCAGACAUGAGCAUCAGCCAUGUGCCAACAAGUACAAAAUAAAAGUCCCUUGGCAGCUGAGCAAUGUCU [TheoBX 21 #MS2Left #AlternativeMS2 #Theo2]" system="MS2 coat protein" recorded_value=11.3
seq="GAUUAAACAUGAGGAUCACCCAUGUAUAUACGAGGACCGGUACGGCCGCCACUCGUAAACGAGUAUCCUCGAAUAAACAUGAUAA [AK 2.1 SS Trypt (A)]" system="MS2 coat protein" recorded_value=44
seq="ACAUGAGGAUCACCCAUGUGGCGUCUUGAUACCAGACCCGAAGUAGUCCCUUGGCAGCAACUACGUGAGGGUCGCCCAUGUGUAG [k'kmullin]" system="MS2 coat protein" recorded_value=23.5
